target: Histamine H2 receptor (Cavia porcellus) (UniProt P47747); assay: H2 receptor antagonistic activity against histamine stimulated chronotropic response in isolated guinea pig right atrium at 1x10E-6 g/mL.; type: functional, tissue-based; conditions: Cardiac atrium
Sequence (P47747 whole entry): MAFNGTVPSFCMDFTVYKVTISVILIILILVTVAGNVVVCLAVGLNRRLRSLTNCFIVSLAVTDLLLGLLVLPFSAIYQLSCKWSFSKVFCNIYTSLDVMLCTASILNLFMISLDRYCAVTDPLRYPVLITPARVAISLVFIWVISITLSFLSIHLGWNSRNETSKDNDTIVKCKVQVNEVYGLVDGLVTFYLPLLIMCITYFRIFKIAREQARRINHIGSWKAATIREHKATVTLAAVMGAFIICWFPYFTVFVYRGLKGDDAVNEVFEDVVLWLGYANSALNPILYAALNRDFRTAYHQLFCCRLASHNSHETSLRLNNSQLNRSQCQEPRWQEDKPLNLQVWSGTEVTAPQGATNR

Compound | Target | Units Symbol | inhibition
C/N=C(/NCc1cccc(-c2csc(N=C(N)N)n2)n1)NS(C)(=O)=O | Histamine H2 receptor (Cavia porcellus) (UniProt P47747) | % | 29
CCS(=O)(=O)N/C=N\Cc1cccc(-c2csc(N=C(N)N)n2)n1 | Histamine H2 receptor (Cavia porcellus) (UniProt P47747) | % | 4
CCNC(=O)NCc1cccc(-c2csc(N=C(N)N)n2)n1 | Histamine H2 receptor (Cavia porcellus) (UniProt P47747) | % | 52
N=C(N)Nc1nc(-c2cccc(CNC(=O)C3CCC3)n2)cs1 | Histamine H2 receptor (Cavia porcellus) (UniProt P47747) | % | 2
N=C(N)Nc1nc(-c2cccc(CNC=O)n2)cs1 | Histamine H2 receptor (Cavia porcellus) (UniProt P47747) | % | 46
N=C(N)Nc1nc(-c2ccc(CC(=N)NS(N)(=O)=O)o2)cs1 | Histamine H2 receptor (Cavia porcellus) (UniProt P47747) | % | 84
N=C(N)Nc1nc(-c2cccc(CNC(=O)C3CCCO3)n2)cs1 (stereo unspecified) | Histamine H2 receptor (Cavia porcellus) (UniProt P47747) | % | 7
CCC(=O)NCc1cccc(-c2csc(N=C(N)N)n2)n1 | Histamine H2 receptor (Cavia porcellus) (UniProt P47747) | % | 72
CC(=O)NCCc1cccc(-c2csc(N=C(N)N)n2)n1 | Histamine H2 receptor (Cavia porcellus) (UniProt P47747) | % | 3
N=C(N)Nc1nc(-c2cccc(CNC(=O)c3ccco3)n2)cs1 | Histamine H2 receptor (Cavia porcellus) (UniProt P47747) | % | 13
N=C(N)Nc1nc(-c2cccc(CNC(=O)C3CCCC3)n2)cs1 | Histamine H2 receptor (Cavia porcellus) (UniProt P47747) | % | 32

====

system: Rattus norvegicus; experiment: Inhibition of histamine stimulated gastric acid secretion in lumen perfused anaesthetized rats after 1 mg/kg intravenous dose; assay type: functional; conditions: Stomach
Listing: inhibition in vivo at 1 mg/kg of selected molecules

Molecule | inhibition in vivo at 1 mg/kg [%]
N=C(N)Nc1nc(-c2cccc(CNC(N)=O)n2)cs1 | 98
CCC(=O)NCc1cccc(-c2csc(N=C(N)N)n2)n1 | 81
N=C(N)Nc1nc(-c2cccc(CNC(=O)c3ccco3)n2)cs1 | 34

====

target: Histamine H2 receptor (Cavia porcellus) (UniProt P47747); assay: H2 receptor antagonistic activity against histamine stimulated chronotropic response in isolated guinea pig right atrium at 1x10E-6 g/mL.; assay type: functional, tissue-based; details: Cardiac atrium
Think of 40% as a floor: if inhibition stands on it or above, it is fulfilled; beneath it, not fulfilled.

Molecule | Target | Class Label
N=C(N)Nc1nc(-c2cccc(CNC(=O)C(F)(F)F)n2)cs1 | Histamine H2 receptor (Cavia porcellus) (UniProt P47747) | fulfilled
N=C(N)Nc1nc(-c2cccc(CNC(=O)C3CCCCCC3)n2)cs1 | Histamine H2 receptor (Cavia porcellus) (UniProt P47747) | not fulfilled
CN/C(=N\CCSCc1nc[nH]c1C)NC#N | Histamine H2 receptor (Cavia porcellus) (UniProt P47747) | fulfilled
CS(=O)(=O)NCc1cccc(-c2csc(N=C(N)N)n2)n1 | Histamine H2 receptor (Cavia porcellus) (UniProt P47747) | fulfilled
CC(=O)NCc1cccc(-c2csc(N=C(N)N)n2)n1.Cl | Histamine H2 receptor (Cavia porcellus) (UniProt P47747) | fulfilled
N=C(N)Nc1nc(-c2cccc(CNC(=O)C3CC3)n2)cs1 | Histamine H2 receptor (Cavia porcellus) (UniProt P47747) | fulfilled
CC(C)C(=O)NCc1cccc(-c2csc(N=C(N)N)n2)n1 | Histamine H2 receptor (Cavia porcellus) (UniProt P47747) | fulfilled
CC(=O)OCC(=O)NCCCOc1cccc(CN2CCCCC2)c1 [ROXATIDINE ACETATE] | Histamine H2 receptor (Cavia porcellus) (UniProt P47747) | fulfilled
CNC(=O)NCc1cccc(-c2csc(N=C(N)N)n2)n1 | Histamine H2 receptor (Cavia porcellus) (UniProt P47747) | fulfilled
CCCNC(=O)NCc1cccc(-c2csc(N=C(N)N)n2)n1 | Histamine H2 receptor (Cavia porcellus) (UniProt P47747) | fulfilled
N=C(N)Nc1nc(-c2cccc(CNC(N)=O)n2)cs1 | Histamine H2 receptor (Cavia porcellus) (UniProt P47747) | fulfilled
CCCC(=O)NCc1cccc(-c2csc(N=C(N)N)n2)n1 | Histamine H2 receptor (Cavia porcellus) (UniProt P47747) | not fulfilled
CC(=O)NCc1cncc(-c2csc(N=C(N)N)n2)c1 | Histamine H2 receptor (Cavia porcellus) (UniProt P47747) | not fulfilled
CNC(=C[N+](=O)[O-])NCCSCc1ccc(CN(C)C)o1 | Histamine H2 receptor (Cavia porcellus) (UniProt P47747) | fulfilled
CN/C(=C\[N+](=O)[O-])NCc1cccc(-c2csc(N=C(N)N)n2)n1 | Histamine H2 receptor (Cavia porcellus) (UniProt P47747) | not fulfilled
C/N=C(\NC#N)NCc1cccc(-c2csc(N=C(N)N)n2)n1 | Histamine H2 receptor (Cavia porcellus) (UniProt P47747) | fulfilled
N=C(N)Nc1nc(-c2cccc(CNC(=O)C3CCC(=O)CC3)n2)cs1 | Histamine H2 receptor (Cavia porcellus) (UniProt P47747) | not fulfilled
NC(N)=Nc1nc(CSCC/C(N)=N/S(N)(=O)=O)cs1 | Histamine H2 receptor (Cavia porcellus) (UniProt P47747) | fulfilled
CSCC(=O)NCc1cccc(-c2csc(N=C(N)N)n2)n1 | Histamine H2 receptor (Cavia porcellus) (UniProt P47747) | not fulfilled
N=C(N)Nc1nc(-c2cccc(CNC(=O)C3CCOC3)n2)cs1 (configuration not stated) | Histamine H2 receptor (Cavia porcellus) (UniProt P47747) | not fulfilled
N=C(N)Nc1nc(-c2cccc(CNC(=O)C3CCCCC3)n2)cs1 | Histamine H2 receptor (Cavia porcellus) (UniProt P47747) | not fulfilled
N=C(N)Nc1nc(-c2cccc(CNC(=O)CSCc3ccco3)n2)cs1 | Histamine H2 receptor (Cavia porcellus) (UniProt P47747) | fulfilled
